Tested on: SN12C
ASSAY_DETAILS: NCI tumour cell line growth inhibition, 48 h
Calls of active or inactive are those of the source. Cut-off read from the data, not from the text of the source: active = GI50 up to about 1.1 µM and inactive = higher. Square brackets hold non-standard residues; d marks the D form. Peptide text beside a SMILES is read from it. * marks the point of attachment. X26 = COC1=CC(=O)N(C(=O)[C@@H](O*)C(C)C)[C@H]1Cc1ccccc1; NMeL = CN[C@@H](CC(C)C)C(=O)O; Hexanoyl = CCCCCC(=O)*
Hello, when you answer, please use one of the following outcomes: 1 (yes) (active), 0 (no) (inactive)

COMPOUND | DISCRETE_LABEL
OCC1C(/C=C/c2ccoc2)ON2CCCC12 (stereo not given) | 0 (no)
CNC(=S)NNC(=O)c1c(C)nc2sccn12 | 0 (no)
CC(=O)OCC1OC(N2C(=O)CC(N)=Nc3ccccc32)C(OC(C)=O)C(OC(C)=O)C1OC(C)=O (stereo not given) | 0 (no)
CCOC(=O)c1cc(C2=CCNC2=O)c(-c2cc(C)no2)[nH]1 | 0 (no)
C=CCc1ccccc1CC1(OCC)OC(=O)c2ccccc21 (stereo not given) | 0 (no)

Qu. Any idea what this test logged for `NC(=S)NS(=O)(=O)c1ccc(F)cc1F` ?
Ans. 0 (no)

Qu. Any idea what this test logged for CCCCCC(=O)N[C@H](C(=O)N[C@H](C(=O)N(C)[C@@H](CC(C)C)C(=O)N1CCC[C@H]1C(=O)N1CCC[C@H]1C(=O)O[C@H](C(=O)N1C(=O)C=C(OC)[C@@H]1Cc1ccccc1)C(C)C)C(C)C)C(C)C (Hexanoyl-VV[NMeL]PP-X26) ?
Ans. 0 (no)

Qu. Any idea what this test logged for COC1/C=C/C(C)C(C(C)C(OC)C(C)CCC(=O)C(C)C(CC(=O)O)OC)OC(=O)/C=C/C=C(\C)CC(OC)C(OC)C2=CC(=O)O[C@@H](C(C)C(OC)CC(OC)/C=C/C(C)C(O)C1)[C@H]2O (stereo not given in full) ?
Ans. 1 (yes)

Qu. Any idea what this test logged for CCCCCCCCCCCCCCCCOCC(Cl)COP(=O)(O)OP(=O)(O)OCC1OC(n2cc(C)c(=O)[nH]c2=O)CC1O (stereo not given) ?
Ans. 0 (no)

Qu. Any idea what this test logged for `CC(=O)n1nc(-c2ccccc2)n(/N=C/c2ccc([N+](=O)[O-])cc2)c1=O` ?
Ans. 0 (no)

Qu. Any idea what this test logged for `CCC(=C(C#N)C#N)c1cc(OC)c(OC)c(OC)c1` ?
Ans. 0 (no)

Qu. Any idea what this test logged for `CN(C)CCOc1cccc2c1C(=O)c1ccccc1C2=O` ?
Ans. 0 (no)

Qu. Any idea what this test logged for `CC(C)(CO)CNc1nc(N)nc(Cl)c1C=O` ?
Ans. 0 (no)

Qu. Any idea what this test logged for `COc1cc(/C=C/C(=O)c2cccc3ccccc23)cc(OC)c1OC` ?
Ans. 0 (no)

Qu. Any idea what this test logged for Cc1c(C2Cc3ccccc3N2C(=O)/C=C\C(=O)O)c2ccccc2n1C (stereo not given) ?
Ans. 0 (no)

Origin of measurements: ChEMBL document CHEMBL1201862
